Assay Details: Safety evaluation (body weight changes) in pancreatic cancer PA1383 model
Format: in vivo, Balb/nude female mice
Settings: 4 mg/kg i.v. QW×3; Day 28
Measured Attribute: Body weights
Write down the value, and be sure its unit follows.

For reference, reported Body weights for O=[N+]([O-])c1ccc(C(OP(=O)(N2CC2)N2CC2)C(F)(F)F)cc1Oc1ccc(-c2ccc(F)cc2)c(F)c1 (stereo not shown) stands at 24.6 g

====

Assay Details: Safety evaluation (body weight changes) in pancreatic cancer PA1383 model
Type: in vivo, Balb/nude female mice
Settings: 1 mg/kg i.v. QD×5, 2 days off, 2 weeks off, QD×5; Day 28
Measured Attribute: Body weights (g)
Unit g implied. Number only.

For reference, reported Body weights for C[C@@H](OP(=O)(N1CC1)N1CC1)c1ccc([N+](=O)[O-])c(Oc2cccc(C(=O)N(C)C)c2)c1 stands at 23.1
